# assay.info: Growth inhibition of human […] cells assessed as cell growth at 10 uM after 48 hrs by SRB assay
# Assay type: functional
# test.context: read-out: Activity
parameter.measured: growth at 10 µM (%)
One number for each entry, in %.

smiles.representation	growth at 10 µM, %
CCOC(=O)C[C@H]1[C@@H](O[Si](C)(C)C(C)(C)C)[C@H](n2cnc3c(NC(=O)Nc4ccccc4)ncnc32)O[C@@H]1CNC(=O)NC	53

I need growth at 10 µM for every entry listed below, if you could help.
1. CNC(=O)NC[C@H]1O[C@@H](n2cnc3c(NC(=O)Nc4ccccc4)ncnc32)[C@H](O[Si](C)(C)C(C)(C)C)[C@@H]1CC(=O)N(C)OC
2. CNC(=O)OC[C@H]1O[C@@H](n2cnc3c(NC(=O)Nc4ccccc4)ncnc32)[C@H](O[Si](C)(C)C(C)(C)C)[C@@H]1O[Si](C)(C)C(C)(C)C

69
88.1

// returns reported growth at 10 µM for input CNC(=O)NC[C@H]1O[C@@H](n2cnc3c(NC(=O)Nc4ccccc4)ncnc32)[C@H](O[Si](C)(C)C(C)(C)C)[C@@H]1O[Si](C)(C)C(C)(C)C
98
